Consider the following molecules; for each one, report its Solubility MEK.
# assay.summary: Solubility in methyl ethyl ketone (MEK) and cyclopentanone (CPN)
# Type: physicochemical
# reported.conditions: methyl ethyl ketone; shaken at 50° C., left at room temperature (23° C.) for 10 minutes

molecule="C=CC(=O)OCCOC(=O)CCC(=O)OCCc1ccc(OC(=O)C2CCC(C(=O)Oc3cc(C(C)(C)C)c(OC(=O)C4CCC(C(=O)Oc5ccc(CCOC(=O)CCC(=O)OCCOC(=O)C=C)cc5)CC4)c4c3SC(=C(C#N)C#N)S4)CC2)cc1 (stereo not drawn)" observed="40 % by weight"
molecule="C=CC(=O)OCCOC(=O)CCC(=O)OCCc1ccc(OC(=O)C2CCC(C(=O)Oc3c(C(C)(C)C)cc(OC(=O)C4CCC(C5CCC(CC)CC5)CC4)c4c3SC(=C(C#N)C#N)S4)CC2)cc1 (stereo not drawn)" observed="35 % by weight"
molecule="C=CC(=O)OCC(C)(C)COC(=O)CCC(=O)OCCc1ccc(OC(=O)C2CCC(C(=O)Oc3cc(C(C)(C)C)c(OC(=O)C4CCC(C5CCC(CC)CC5)CC4)c4c3SC(=C(C#N)C#N)S4)CC2)cc1 (stereo not drawn)" observed="5 % by weight"

For each of the molecules below, state Solubility MEK.
1. C=CC(=O)OCC(C)(C)COC(=O)CCC(=O)OCCc1ccc(OC(=O)C2CCC(C(=O)Oc3c(C)cc(OC(=O)C4CCC(C5CCC(CC)CC5)CC4)c4c3SC(=C(C#N)C#N)S4)CC2)cc1 (stereo not drawn)
2. C=CC(=O)OCC(C)(C)COC(=O)CCC(=O)OCCc1ccc(OC(=O)C2CCC(C(=O)Oc3ccc(OC(=O)C4CCC(C5CCC(CC)CC5)CC4)c4c3SC(=C(C#N)C#N)S4)CC2)cc1 (stereo not drawn)
3. C=CC(=O)OCCCCCCOc1ccc(OC(=O)C2CCC(C(=O)Oc3c(C(C)(C)C)cc(OC(=O)C4CCC(C5CCC(CC)CC5)CC4)c4c3SC(=C(C#N)C#N)S4)CC2)cc1 (stereo not drawn)
4. CCC1CCC(C2CCC(C(=O)Oc3cc(C(C)(C)C)c(OC(=O)C4CCC(C5CCC(CC)CC5)CC4)c4c3SC(=C(C#N)C#N)S4)CC2)CC1 (stereo not drawn)
5. C=CC(=O)OCC(C)(C)COC(=O)CCC(=O)OCCc1ccc(OC(=O)C2CCC(C(=O)Oc3cc(C(C)(C)C)c(OC(=O)C4CCC(C(=O)Oc5ccc(CCOC(=O)CCC(=O)OCC(C)(C)COC(=O)C=C)cc5)CC4)c4c3SC(=C(C#N)C#N)S4)CC2)cc1 (stereo not drawn)
6. C=CC(=O)OCCCCCCOc1ccc(OC(=O)C2CCC(C(=O)Oc3cc(C(C)(C)C)c(OC(=O)C4CCC(C(=O)Oc5ccc(OCCCCCCOC(=O)C=C)cc5)CC4)c4c3SC(=C(C#N)C#N)S4)CC2)cc1 (stereo not drawn)

**Result**
["5 % by weight", "1 % by weight", "10 % by weight", "<1 % by weight", "40 % by weight", "8 % by weight"]

---

# assay.summary: Durability of optically anisotropic film at high temperature and high humidity
# Assay type: physicochemical
# reported.conditions: result in words
readout.type: Durability of optically anisotropic film

compound="C=CC(=O)OCCCCCCOc1ccc(OC(=O)C2CCC(C(=O)Oc3cc(C(C)(C)C)c(OC(=O)C4CCC(C(=O)Oc5ccc(OCCCCCCOC(=O)C=C)cc5)CC4)c4c3SC(=C(C#N)C#N)S4)CC2)cc1 (stereo not shown) [Compound E-1]" observed=deteriorate
compound="C=CC(=O)OCC(C)(C)COC(=O)CCC(=O)OCCc1ccc(OC(=O)C2CCC(C(=O)Oc3c(C)cc(OC(=O)C4CCC(C5CCC(CC)CC5)CC4)c4c3SC(=C(C#N)C#N)S4)CC2)cc1 (stereo not shown) [Compound B-1]" observed=deteriorated
compound="C=CC(=O)OCC(C)(C)COC(=O)CCC(=O)OCCc1ccc(OC(=O)C2CCC(C(=O)Oc3ccc(OC(=O)C4CCC(C5CCC(CC)CC5)CC4)c4c3SC(=C(C#N)C#N)S4)CC2)cc1 (stereo not shown) [Compound A-1]" observed=deteriorated
compound="C=CC(=O)OCCOC(=O)CCC(=O)OCCc1ccc(OC(=O)C2CCC(C(=O)Oc3cc(C(C)(C)C)c(OC(=O)C4CCC(C(=O)Oc5ccc(CCOC(=O)CCC(=O)OCCOC(=O)C=C)cc5)CC4)c4c3SC(=C(C#N)C#N)S4)CC2)cc1 [Compound D-1]" observed=deteriorate

---

Consider the following compounds; for each one, report its Solubility CPO.
# assay.summary: Solubility in methyl ethyl ketone (MEK) and cyclopentanone (CPN)
# Type: physicochemical
# reported.conditions: cyclopentanone; shaken at 50° C., left at room temperature (23° C.) for 10 minutes
Numbers only, in % by weight.

Examples with answers:
compound="C=CC(=O)OCCCCCCOc1ccc(OC(=O)C2CCC(C(=O)Oc3cc(C(C)(C)C)c(OC(=O)C4CCC(C(=O)Oc5ccc(OCCCCCCOC(=O)C=C)cc5)CC4)c4c3SC(=C(C#N)C#N)S4)CC2)cc1 (stereo not drawn) [Compound E-1]" readout_type="Solubility CPO" measurement_units="% by weight" observed=10
compound="C=CC(=O)OCC(C)(C)COC(=O)CCC(=O)OCCc1ccc(OC(=O)C2CCC(C(=O)Oc3c(C)cc(OC(=O)C4CCC(C5CCC(CC)CC5)CC4)c4c3SC(=C(C#N)C#N)S4)CC2)cc1 (stereo not drawn) [Compound B-1]" readout_type="Solubility CPO" measurement_units="% by weight" observed=15
compound="CCC1CCC(C2CCC(C(=O)Oc3cc(C(C)(C)C)c(OC(=O)C4CCC(C5CCC(CC)CC5)CC4)c4c3SC(=C(C#N)C#N)S4)CC2)CC1 (stereo not drawn) [Compound I-1f]" readout_type="Solubility CPO" measurement_units="% by weight" observed=1
compound="C=CC(=O)OCC(C)(C)COC(=O)CCC(=O)OCCc1ccc(OC(=O)C2CCC(C(=O)Oc3cc(C(C)(C)C)c(OC(=O)C4CCC(C5CCC(CC)CC5)CC4)c4c3SC(=C(C#N)C#N)S4)CC2)cc1 (stereo not drawn) [Compound I-13]" readout_type="Solubility CPO" measurement_units="% by weight" observed=15
compound="C=CC(=O)OCCOC(=O)CCC(=O)OCCc1ccc(OC(=O)C2CCC(C(=O)Oc3c(C(C)(C)C)cc(OC(=O)C4CCC(C5CCC(CC)CC5)CC4)c4c3SC(=C(C#N)C#N)S4)CC2)cc1 (stereo not drawn) [Compound I-2]" readout_type="Solubility CPO" measurement_units="% by weight" observed=30

For each of the compounds below, state Solubility CPO.
1. C=CC(=O)OCC(C)(C)COC(=O)CCC(=O)OCCc1ccc(OC(=O)C2CCC(C(=O)Oc3cc(C(C)(C)C)c(OC(=O)C4CCC(C(=O)Oc5ccc(CCOC(=O)CCC(=O)OCC(C)(C)COC(=O)C=C)cc5)CC4)c4c3SC(=C(C#N)C#N)S4)CC2)cc1 (stereo not drawn) [Compound C-1]
2. C=CC(=O)OCCOC(=O)CCC(=O)OCCc1ccc(OC(=O)C2CCC(C(=O)Oc3cc(C(C)(C)C)c(OC(=O)C4CCC(C(=O)Oc5ccc(CCOC(=O)CCC(=O)OCCOC(=O)C=C)cc5)CC4)c4c3SC(=C(C#N)C#N)S4)CC2)cc1 [Compound D-1]
3. C=CC(=O)OCC(C)(C)COC(=O)CCC(=O)OCCc1ccc(OC(=O)C2CCC(C(=O)Oc3ccc(OC(=O)C4CCC(C5CCC(CC)CC5)CC4)c4c3SC(=C(C#N)C#N)S4)CC2)cc1 (stereo not drawn) [Compound A-1]
4. C=CC(=O)OCCCCCCOc1ccc(OC(=O)C2CCC(C(=O)Oc3c(C(C)(C)C)cc(OC(=O)C4CCC(C5CCC(CC)CC5)CC4)c4c3SC(=C(C#N)C#N)S4)CC2)cc1 (stereo not drawn) [Compound I-3]

**Result**
1. 40
2. 40
3. 10
4. 20
